Measurement Protocol: in vitro transdermal penetration of indomethacin from petrolatum ointment through shed snake skin, vertical diffusion cell
Type: in vitro ADME, Elaphe obsoleta (black rat snake)
Particulars: 5% enhancer in ointment; indomethacin; slope relative to Azone = 100%
The entries below are paired with their reported Relative Penetration.
Measured Endpoint: Relative Penetration

CCCCCCCCCCCCCC(=O)OC(C)n1ccn(C)c1=O (stereo not drawn) [compound 3]: 80-100%
CCCCCCCCCCCCCCOC(=O)OCn1ccn(C)c1=O [Run No. 10]: 10%
CCCCCCCCCCCC(=O)OC(C)Cn1ccn(C)c1=O (stereo not drawn) [compound 1]: 120-200%

====

Measurement Protocol: in vitro transdermal penetration of indomethacin from petrolatum ointment through shed snake skin, vertical diffusion cell
Assay type: in vitro ADME, Elaphe obsoleta (black rat snake)
Particulars: 5% enhancer in ointment; indomethacin; slope relative to Azone = 100%
Criterion: Relative Penetration strictly under 60%. Met: Satisfied. Not met: Not satisfied.

CCCCCCCCCCCCCC(=O)OC(C)n1ccn(CC)c1=O (stereo not shown): Satisfied
CCCCCCCCCC(=O)OCn1ccn(C)c1=O: Satisfied
CCCCCCCCCCCCCC(=O)OC(C)Cn1ccn(C)c1=O (stereo not shown): Not satisfied
CCCCCCCCCCCCN1CCCCCC1=O [Azone, 1-Dodecylazacycloheptane-2-One, reference compound]: Not satisfied
CCCCCCCCCC(=O)OC(C)Cn1ccn(C)c1=O (stereo not shown): Satisfied
CCCCCCCCCCCCOC(=O)OCn1ccn(C)c1=O: Satisfied
CCCCCCCCCCCC(=O)OCCCn1ccn(C)c1=O: Not satisfied
CCCCCCCCCCOC(=O)OCn1ccn(C)c1=O: Satisfied
